biological target: KRasG12C (M1-K169, biotinylated on the N-terminus) (Homo sapiens (Human), UniProt P01116, G12C); experiment: Covalent competition assay: scintillation proximity assay (SPA) quantifying covalent modification of KRASG12C; details: competition with radiolabeled covalent probe (Compound B/Compound A), 2 hours incubation, 10 nM KRasG12C
ASSAY READOUT: IC50

1) C=CC(=O)N1CC2(CC(n3nc(N4CC[C@@H](CN5CCC6COCC65)CC4(C)C)c(-c4c(C)c(Cl)cc5[nH]ncc45)c3C)C2)C1 (single isomer, unassigned) [Example 306a] : > 5 µM
2) C=CC(=O)N1CC2(CC(n3nc(N4CCN(C5CCOCC5)CC45CCC5)c(-c4c(Cl)c(C)cc5[nH]ncc45)c3C)C2)C1 (single isomer, unassigned) [Example 130b] : 0.032 µM
3) C=CC(=O)N1CC2(CC(n3nc(N4CCn5nccc5C4C)c(-c4c(Cl)c(C)cc5[nH]ncc45)c3C)C2)C1 (single isomer, unassigned) [Example 41a] : 41.9 µM
4) C=CC(=O)N1CC2(CC(n3nc(N4CCN(C5COC5)CC4(C)C)c(-c4c(Cl)c(Cl)cc5[nH]ncc45)c3C)C2)C1 (single isomer, unassigned) [Example 73b] : 0.015 µM
5) C=CC(=O)N1CC2(CC(n3nc(N4CCN(CCOC)C[C@]4(C)C(F)F)c(-c4c(Cl)c(C)cc5[nH]ncc45)c3C)C2)C1 (single isomer, unassigned) [Example 178a] : 3.9 µM
